The measurements presented in this section are drawn from ChEMBL document CHEMBL1153165.

- System: K562
- protocol details: Antitumor activity against human K562 cells by MTT assay
- Format: functional, cell-based
measurement label: IC50 (µg/mL)

{"structure notation": "N#Cc1c(F)c(Cl)c(C(C(=O)c2ccc(Cl)cc2)=C2NCCN2)c(C#N)c1F", "IC50 / µg/mL": 1.6}
{"structure notation": "N#Cc1c(F)c(Cl)c(C(C(=O)c2ccc(F)cc2)=C2NCCCN2)c(C#N)c1F", "IC50 / µg/mL": 1.8}
{"structure notation": "CCOC(=O)C(=C1NCCN1)c1c(Cl)c(F)c(C#N)c(F)c1C#N", "IC50 / µg/mL": 0.09}
{"structure notation": "CC(=O)C(=C1NCCN1)c1c(Cl)c(F)c(C#N)c(F)c1C#N", "IC50 / µg/mL": 4.4}

1. N#Cc1c(F)c(F)c(C(C(=O)c2ccccc2)=C2NCCN2)c(C#N)c1F
2. N#Cc1c(Cl)c(Cl)c(C(C(=O)c2ccc(Cl)cc2)=C2NCCN2)c(C#N)c1Cl
3. N#Cc1c(F)c(C#N)c(C(C(=O)c2ccccc2)=C2NCCN2)c(F)c1Nc1ccccc1
Thanks in advance: please rank these 3 entries by IC50, highest to lowest. Answer by listing the labels in the order asked for.
1, 3, 2
(1: 19.6 µg/mL, 3: 5.6 µg/mL, 2: 0.8 µg/mL)

I. N#Cc1c(F)c(F)c(C(C(=O)c2ccc(F)cc2)=C2NCCCN2)c(C#N)c1F
II. N#Cc1c(Cl)c(Cl)c(C(C(=O)c2ccccc2)=C2NCCN2)c(C#N)c1Cl
III. N#Cc1c(F)c(F)c(C(C(=O)c2ccccc2)=C2NCCCCN2)c(C#N)c1F
Rank descending by IC50. Answer format: list of labels, ordered as asked.
II, I, III
(II: 8.5 µg/mL, I: 2.5 µg/mL, III: 0.3 µg/mL)

====

- Tested on: K562
- protocol details: Antitumor activity against human K562 cells by MTT assay
- Type: functional, cell-based
measurement label: IC50 (mg/L)

{"structure notation": "CCOC(=O)C(=C1NCCN1)c1c(Cl)c(Cl)c(C#N)c(Cl)c1C#N", "IC50 (mg/L)": 0.5}
{"structure notation": "N#Cc1c(Cl)c(Cl)c(C(C(=O)c2ccc(F)cc2)=C2NCCCN2)c(C#N)c1Cl", "IC50 (mg/L)": 0.2}
{"structure notation": "Cc1ccc(C(=O)C(=C2NCCN2)c2c(F)c(F)c(C#N)c(F)c2C#N)cc1", "IC50 (mg/L)": 0.9}

I. Cc1ccc(C(=O)C(=C2NCCN2)c2c(Cl)c(Cl)c(C#N)c(Cl)c2C#N)cc1
II. N#Cc1c(Cl)c(Cl)c(C(C(=O)c2ccccc2)=C2NCCCCN2)c(C#N)c1Cl
Which entry has a larger number for IC50, I or II ? The response must carry the label of the picked entry.
I
(I: 1.4 mg/L, II: 0.1 mg/L)

a. N#Cc1c(F)c(Cl)c(C(C(=O)c2ccccc2)=C2NCCN2)c(C#N)c1F
b. Cc1ccc(C(=O)C(=C2NCCN2)c2c(Cl)c(F)c(C#N)c(F)c2C#N)cc1
c. N#Cc1c(F)c(F)c(C(C(=O)c2ccc(Cl)cc2)=C2NCCN2)c(C#N)c1F
Please produce an ascending ranking of these compounds based on IC50. Give the labels in the order specified.
c, a, b

I. COc1ccc(C(=O)C(=C2NCCN2)c2c(Cl)c(F)c(C#N)c(F)c2C#N)cc1
II. CC(=O)C(=C1NCCN1)c1c(Cl)c(Cl)c(C#N)c(Cl)c1C#N
// which entry has the larger IC50 value, I or II ? Response format: the label of the selected entry.
I

a. N#Cc1c(F)c(Cl)c(C(C(=O)c2ccccc2)=C2NCCCCN2)c(C#N)c1F
b. COc1ccc(C(=O)C(=C2NCCN2)c2c(Cl)c(Cl)c(C#N)c(Cl)c2C#N)cc1
Form field 'greater IC50' accepts a or b ; which applies? Response format: the label of the selected entry.
a
(a: 2.1 mg/L, b: 0.08 mg/L)

====

- System: SK-OV-3
- protocol details: Antitumor activity against human SKOV3 cells by MTT assay
- Assay type: functional, cell-based
measurement label: IC50 (µg/mL)

{"structure notation": "N#Cc1c(F)c(Cl)c(C(C(=O)c2ccc(F)cc2)=C2NCCCN2)c(C#N)c1F", "measurement label": "IC50", "unit info": "µg/mL", "measured result": 8.2}

1. COc1ccc(C(=O)C(=C2NCCN2)c2c(Cl)c(F)c(C#N)c(F)c2C#N)cc1
2. N#Cc1c(F)c(Cl)c(C(C(=O)c2ccccc2)=C2NCCN2)c(C#N)c1F
Select the item whose IC50 value is smaller, choosing between 1 and 2 . In your reply, give the label of the chosen option.
1

1. CCOC(=O)C(=C1NCCN1)c1c(F)c(F)c(C#N)c(F)c1C#N
2. N#Cc1c(Cl)c(Cl)c(C(C(=O)c2ccc(Cl)cc2)=C2NCCN2)c(C#N)c1Cl
3. CC(=O)C(=C1NCCN1)c1c(Cl)c(Cl)c(C#N)c(Cl)c1C#N
Order the records by IC50, with each subsequent value no larger than the one before. To answer, arrange all of the labels according to the requested order.
3, 1, 2

====

- System: HepG2
- protocol details: Antitumor activity against human HepG2 cells by MTT assay
- Assay type: functional, cell-based
measurement label: IC50 (µg/mL)

{"structure notation": "N#Cc1c(F)c(F)c(C(C(=O)c2ccc(Cl)cc2)=C2NCCN2)c(C#N)c1F", "target of assay": "HepG2", "measured result": 12.5}
{"structure notation": "CCOC(=O)C(=C1NCCN1)c1c(Cl)c(F)c(C#N)c(F)c1C#N", "target of assay": "HepG2", "measured result": 2.5}
{"structure notation": "N#Cc1c(Cl)c(Cl)c(C(C(=O)c2ccccc2)=C2NCCCCN2)c(C#N)c1Cl", "target of assay": "HepG2", "measured result": 14.5}
{"structure notation": "N#Cc1c(Cl)c(Cl)c(C(C(=O)c2ccc(F)cc2)=C2NCCCN2)c(C#N)c1Cl", "target of assay": "HepG2", "measured result": 31.8}
{"structure notation": "CC(=O)C(=C1NCCN1)c1c(Cl)c(Cl)c(C#N)c(Cl)c1C#N", "target of assay": "HepG2", "measured result": 5.8}
{"structure notation": "N#Cc1c(F)c(Cl)c(C(C(=O)c2ccc(F)cc2)=C2NCCCN2)c(C#N)c1F", "target of assay": "HepG2", "measured result": 45.1}

I. N#Cc1c(F)c(F)c(C(C(=O)c2ccccc2)=C2NCCCCN2)c(C#N)c1F
II. Cc1ccc(C(=O)C(=C2NCCN2)c2c(Cl)c(F)c(C#N)c(F)c2C#N)cc1
III. N#Cc1c(Cl)c(Cl)c(C(C(=O)c2ccc(Cl)cc2)=C2NCCN2)c(C#N)c1Cl
IV. Cc1ccc(C(=O)C(=C2NCCN2)c2c(Cl)c(Cl)c(C#N)c(Cl)c2C#N)cc1
V. CC(=O)C(=C1NCCN1)c1c(Cl)c(F)c(C#N)c(F)c1C#N
# rank by IC50, ascending (min first) Write the labels in rank order as requested.
V, III, IV, I, II

====

- Test system: SK-OV-3
- protocol details: Antitumor activity against human SKOV3 cells by MTT assay
- Assay type: functional, cell-based
measurement label: IC50 (mg/L)

a. N#Cc1c(F)c(F)c(C(C(=O)c2ccccc2)=C2NCCN2)c(C#N)c1F
b. N#Cc1c(F)c(Cl)c(C(C(=O)c2ccccc2)=C2NCCCCN2)c(C#N)c1F
c. N#Cc1c(Cl)c(Cl)c(C(C(=O)c2ccc(F)cc2)=C2NCCCN2)c(C#N)c1Cl
I would appreciate it if you could sort these 3 compounds by IC50, starting from the smallest number. Please list the labels according to the requested order.
b, c, a
